- measurement.description: DPPH radical scavenging assay
- test.context: half-maximal inhibitory concentration to DPPH radical; means ± SD (n = 3)
pIC50: −log10 of the molar value.
measure.name: pIC50

Give the reported pIC50 for this compound. O=C(OC[C@H]1O[C@@H](OC(=O)c2cc(O)c(O)c(O)c2)[C@H](O)[C@@H](O)[C@@H]1O)c1cc(O)c(O)c(O)c1
3.66

Give the reported pIC50 for this compound. O=C1O[C@@H](c2ccc(O)cc2)Cc2cc(O)cc(O)c21
2.40

Give the reported pIC50 for this compound. O=C(O[C@@H]1O[C@@H]2COC(=O)c3cc(O)c(O)c(O)c3-c3c(cc(O)c(O)c3O)C(=O)O[C@H]2[C@H](O)[C@H]1O)c1cc(O)c(O)c(O)c1
3.51

Give the reported pIC50 for this compound. O=C(O)c1cc(O)c(O)c(O)c1
3.62

P. O=C(O[C@@H]1O[C@@H]2COC(=O)c3cc(O)c(O)c(O)c3-c3c(cc(O)c(O)c3O)C(=O)O[C@H]2[C@H](O)[C@H]1OC(=O)c1cc(O)c(O)c(O)c1)c1cc(O)c(O)c(O)c1
Q. O=C1O[C@H]([C@@H](O)CO)C(O)=C1O [Ascorbic acid, ascorbic acid, reference compound]
Of P and Q , which one carries the higher reported pIC50? When you have decided, please share the label of that item.
P
(P: 3.52, Q: 2.92)

###

- measured.on: α-glucosidase
- measurement.description: α-Glucosidase inhibitory activity (PNPG substrate)
- test.context: means ± SD (n = 3)
measure.name: IC50 (nM)

Give the reported IC50 for this compound. O=C(OC[C@H]1O[C@@H](OC(=O)c2cc(O)c(O)c(O)c2)[C@H](OC(=O)c2cc(O)c(O)c(O)c2)[C@@H](O)[C@@H]1O)c1cc(O)c(O)c(O)c1 [Compound 7, 1,2,6-tri-O-galloy-β-D-glucopyranose]
1960

1. O=C(O[C@@H]1O[C@@H]2COC(=O)c3cc(O)c(O)c(O)c3-c3c(cc(O)c(O)c3O)C(=O)O[C@H]2[C@H](O)[C@H]1OC(=O)c1cc(O)c(O)c(O)c1)c1cc(O)c(O)c(O)c1 [Compound 5]
2. O=C(O[C@@H]1O[C@@H]2COC(=O)c3cc(O)c(O)c(O)c3-c3c(cc(O)c(O)c3O)C(=O)O[C@H]2[C@H](O)[C@H]1O)c1cc(O)c(O)c(O)c1 [Compound 4]
// select label with min value of measured IC50 from [ 1 , 2 ] When you have decided, please share the label of that item.
1
(1: 670 nM, 2: 1960 nM)

###

Listed here are molecules together with their documented ABTS+ Inhibition Ratio (%).
- measurement.description: ABTS+ radical scavenging assay;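 note: ABTS+ radical solution incubated with compound in EtOH in 96-well plates for 6–8 min in the dark at room temperature, versus blank control, trolox as reference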
- test.context: at a concentration of 500 μM
Please state the figure in %; there is no need to write the unit.

// worked examples, ABTS+ Inhibition Ratio (%) included
Give the reported ABTS+ Inhibition Ratio (%) for this molecule. O=C(C=Cc1ccc(O)cc1)OC1CC(O)(C(=O)O)CC(O)C1O (stereo not shown) [Compound 26, 5-O-(E)-p-coumaroylquinic acid]
6.82

Give the reported ABTS+ Inhibition Ratio (%) for this molecule. O=C(O)/C=C/c1ccc(O)cc1 [Compound 29, E-p-hydroxycinnamic acid]
8.12

Give the reported ABTS+ Inhibition Ratio (%) for this molecule. O=c1c(O[C@@H]2O[C@H](CO)[C@@H](O)[C@H](O)[C@H]2O)c(-c2ccc(O)cc2)oc2cc(O)cc(O)c12 [Compound 9, kaempferol 3-O-β-D-glucopyranoside]
0.19

Further cases:
Give the reported ABTS+ Inhibition Ratio (%) for this molecule. O=C(/C=C/c1ccc(O)cc1)OC[C@H]1O[C@@H](Oc2c(-c3ccc(O)cc3)oc3cc(O)cc(O)c3c2=O)[C@H](O)[C@@H](O)[C@@H]1O [Compound 10]
11.55

###

- measurement.description: DPPH radical scavenging assay
- test.context: half-maximal inhibitory concentration to DPPH radical; means ± SD (n = 3)
measure.name: IC50 (µM)

// worked examples, IC50 included
Give the reported IC50 for this molecule. C[C@@H]1O[C@@H](Oc2c(-c3ccc(O)c(O)c3)oc3cc(O)cc(O)c3c2=O)[C@H](O[C@@H]2O[C@H](CO)[C@@H](O)[C@H](O)[C@H]2O)[C@H](O)[C@H]1O
2620

Give the reported IC50 for this molecule. O=C(O)c1ccc(O)c(O)c1 [Compound 20, 3,4-dihydroxybenzoic acid]
2120

P. O=c1c(O)c(-c2ccc(O)c(O)c2)oc2cc(O)cc(O)c12
Q. O=C(/C=C/c1ccc(O)c(O)c1)O[C@@H]1CC(C(=O)O)=C[C@@H](O)[C@H]1O
Of P and Q , which one carries the higher reported IC50? When you have decided, please share the label of that item.
P

###

- measurement.description: DPPH radical scavenging assay
- test.context: half-maximal inhibitory concentration to DPPH radical; means ± SD (n = 3)
measure.name: IC50 (µM)

Give the reported IC50 for this compound. O=C(O)/C=C/c1ccc(O)c(O)c1
479

a. O=C(OC[C@H]1O[C@@H](OC(=O)c2cc(O)c(O)c(O)c2)[C@H](O)[C@@H](O)[C@@H]1OC(=O)c1cc(O)c(O)c(O)c1)c1cc(O)c(O)c(O)c1
b. C[C@@H]1O[C@@H](OC[C@H]2O[C@@H](Oc3c(-c4ccc(O)c(O)c4)oc4cc(O)cc(O)c4c3=O)[C@H](O)[C@@H](O)[C@@H]2O)[C@H](O)[C@H](O)[C@H]1O
Of a and b , which one carries the higher reported IC50? When you have decided, please share the label of that item.
b

###

- measurement.description: DPPH radical scavenging assay;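 note: compounds in EtOH mixed 1:1 with 200 µM DPPH in EtOH in 96-well plates, kept dark 15 min at room temperature, with blank control and ascorbic acid as reference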
- test.context: half-maximal inhibitory concentration to DPPH radical; means ± SD (n = 3)
pIC50: −log10 of the molar value.
measure.name: pIC50

I. O=C(O)/C=C\c1ccc(O[C@@H]2O[C@H](COC(=O)c3cc(O)c(O)c(O)c3)[C@@H](O)[C@H](O)[C@H]2O)cc1 [Compound 2]
II. O=C(O[C@H]1C(O)O[C@@H]2COC(=O)c3cc(O)c(O)c(O)c3-c3c(cc(O)c(O)c3O)C(=O)O[C@H]2[C@@H]1O)c1cc(O)c(O)c(O)c1 (some centres unmarked) [Compound 3]
III. COC(=O)c1cc(O)c(O)c(O)c1 [Compound 23, methyl gallate]
Order the records by pIC50, with each subsequent value no larger than the one before. Rank them, then answer with their labels in that order.
III, I, II
(III: 3.52, I: 3.30, II: 3.03)

1. O=C(O[C@@H]1O[C@@H]2COC(=O)c3cc(O)c(O)c4oc5c(O)c(O)cc(c5c34)C(=O)O[C@H]2[C@H](O)[C@H]1O)c1cc(O)c(O)c(O)c1 [Compound 1]
2. O=C(OC[C@H]1O[C@@H](OC(=O)c2cc(O)c(O)c(O)c2)[C@H](OC(=O)c2cc(O)c(O)c(O)c2)[C@@H](O)[C@@H]1O)c1cc(O)c(O)c(O)c1 [Compound 7, 1,2,6-tri-O-galloy-β-D-glucopyranose]
Of 1 and 2 , which one carries the higher reported pIC50? When you have decided, please share the label of that item.
1
(1: 3.47, 2: 3.27)

###

- measured.on: α-glucosidase
- measurement.description: α-Glucosidase inhibitory activity (PNPG substrate)
- test.context: means ± SD (n = 3)
measure.name: IC50 (µM)

Give the reported IC50 for this molecule. O=C(O[C@@H]1O[C@@H]2COC(=O)c3cc(O)c(O)c4oc5c(O)c(O)cc(c5c34)C(=O)O[C@H]2[C@H](O)[C@H]1O)c1cc(O)c(O)c(O)c1
1.77

Give the reported IC50 for this molecule. O=C(OC[C@H]1O[C@@H](OC(=O)c2cc(O)c(O)c(O)c2)[C@H](O)[C@@H](O)[C@@H]1OC(=O)c1cc(O)c(O)c(O)c1)c1cc(O)c(O)c(O)c1
2.01

Give the reported IC50 for this molecule. O=C(O[C@H]1C(O)O[C@@H]2COC(=O)c3cc(O)c(O)c(O)c3-c3c(cc(O)c(O)c3O)C(=O)O[C@H]2[C@@H]1O)c1cc(O)c(O)c(O)c1 (stereo partly drawn)
1.74
